# tested on: Nuclear receptor subfamily 1 group I member 2 (Rattus norvegicus)
# assay text: qHTS assay for small molecule activators of the rat pregnane X receptor (rPXR) signaling pathway (AID 651751); also: 0% is about no effect
# condition summary: rPXR reporter cells, luciferase (One-Glo), 24 h
observable: max response (%)
Only the number, expressed in %, is required.

Fill blank: measured max response of the compound `CCOP(=O)(OCC)SCCSCC` is ____.
3.51

Given `O=[As](O)(O)O` , state its recorded max response.
-1.48

Field request: max response | item: `O=[N+]([O-])c1cc(C(F)(F)F)cc([N+](=O)[O-])c1Cl`
-2.25

Continuing:
Which value of max response has been reported for CCC/C(=N\OCC)C1=C(O)CC(CC(C)SCC)CC1=O (stereo unspecified) in the records?
0.0341

I have this compound here, `CCCCCCCCCCCCN(C)C` , and I need its recorded max response.
-0.417

Tell me the measured max response of `CCC[CH2][Sn]([CH2]CCC)([CH2]CCC)[CH2]CCC` , please.
8.28

Find the recorded max response belonging to `N#CC(Cl)Cl` and report it.
0.641

What max response value was documented for this compound, `COP(=S)(OC)Oc1c(Cl)cc(C)cc1Cl` ?
1.76

What measured max response goes with `CC(C)(c1ccccc1)c1cc(-n2nc3ccccc3n2)c(O)c(C(C)(C)c2ccccc2)c1` ?
2.09

# query: max response of entry `CCC[CH2][Sn](=[O])[CH2]CCC`
4.58

Need max response of `CCCCOCCOC(C)=O` , thanks.
2.29

Which max response is listed for `CCCCOC(=O)c1ccccc1C(=O)O` ?
-8.39

Requested field: max response. Item: `Nc1c(Cl)c(F)nc(OCC(=O)O)c1Cl`
-2.68

Fill blank: measured max response of the compound `CCC(C)(C)c1ccc(O)c(C(C)(C)CC)c1` is ____.
3.81

* * *

# tested on: Nuclear receptor subfamily 1 group I member 2 (Rattus norvegicus) (UniProt Q9R1A7)
# Sequence (Q9R1A7 whole entry, looked up): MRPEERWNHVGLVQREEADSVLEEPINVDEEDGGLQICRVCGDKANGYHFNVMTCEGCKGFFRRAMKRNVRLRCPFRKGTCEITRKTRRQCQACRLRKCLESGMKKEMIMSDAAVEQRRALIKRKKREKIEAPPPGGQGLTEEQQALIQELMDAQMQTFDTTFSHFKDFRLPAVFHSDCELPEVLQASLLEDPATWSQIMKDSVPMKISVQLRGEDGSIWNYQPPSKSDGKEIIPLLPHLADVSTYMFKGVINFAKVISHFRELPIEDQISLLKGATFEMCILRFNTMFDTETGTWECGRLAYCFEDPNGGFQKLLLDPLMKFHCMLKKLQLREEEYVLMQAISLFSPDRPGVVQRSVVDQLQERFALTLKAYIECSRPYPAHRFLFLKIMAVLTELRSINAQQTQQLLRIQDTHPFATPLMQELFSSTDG
# assay text: qHTS assay for small molecule activators of the rat pregnane X receptor (rPXR) signaling pathway (AID 651751); also: 0% is about no effect
# condition summary: rPXR reporter cells, luciferase (One-Glo), 24 h
# max response values compiled below
A number alone suffices; assume %.

Find max response (Nuclear receptor subfamily 1 group I member 2 (Rattus norvegicus) (UniProt Q9R1A7)) for the entry `ClC1=C(Cl)[C@]2(Cl)[C@H]3[C@H]([C@@H]4C=C[C@H]3C4)[C@]1(Cl)C2(Cl)Cl`
7.41

Form field: max response recorded for `Cn1cc(-c2ccccc2)c(=O)c(-c2cccc(C(F)(F)F)c2)c1` with Nuclear receptor subfamily 1 group I member 2 (Rattus norvegicus) (UniProt Q9R1A7) (enter value)
0.923

What value of max response on Nuclear receptor subfamily 1 group I member 2 (Rattus norvegicus) (UniProt Q9R1A7) does O=C(O)C1C(C(=O)O)C2(Cl)C(Cl)=C(Cl)C1(Cl)C2(Cl)Cl (stereo unspecified) have?
0.252

More entries:
Recorded max response for `COc1ccc(O)c(C(C)(C)C)c1` with Nuclear receptor subfamily 1 group I member 2 (Rattus norvegicus) (UniProt Q9R1A7), please?
3.52

Short answer please: max response, Nuclear receptor subfamily 1 group I member 2 (Rattus norvegicus) (UniProt Q9R1A7), entry `COP(=S)(OC)Oc1nc(Cl)c(Cl)cc1Cl`
-1.85

Quick check: max response on Nuclear receptor subfamily 1 group I member 2 (Rattus norvegicus) (UniProt Q9R1A7), item CCCN(CC)CC1COC2(CCC(C(C)(C)C)CC2)O1 (stereo unspecified) ?
-3.48

Param readout= max response; system= Nuclear receptor subfamily 1 group I member 2 (Rattus norvegicus) (UniProt Q9R1A7); entry= `O=C1NCCN1Cc1ccc(Cl)nc1` ; returns value.
1.46

Tell me reported max response for `CCN(CC)c1nc(C)cc(OP(=S)(OC)OC)n1` , tested with Nuclear receptor subfamily 1 group I member 2 (Rattus norvegicus) (UniProt Q9R1A7).
-1.67

Find max response (Nuclear receptor subfamily 1 group I member 2 (Rattus norvegicus) (UniProt Q9R1A7)) for the entry CC(C)C1(C)N=C(c2nc3ccccc3cc2C(=O)O)NC1=O (stereo unspecified)
-1.98
